Values compiled from patent US20260132208A1.

# study_system: T1, pm8 (Y15, Y16 and Y17 sulfated)
# T1 construct: also called sulfated CCR8 N-terminal peptide pm8
# T1 sequence (peptide, as listed by the source): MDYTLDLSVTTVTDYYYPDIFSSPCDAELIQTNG
# procedure_text: ELISA on coated peptide [cont.]
measure: binding result

Check out these entries, answers already filled in.
binder: anti-CCR8 mAb 1-3 (antibody, V domains shown, Murine hybridoma mAb) VH: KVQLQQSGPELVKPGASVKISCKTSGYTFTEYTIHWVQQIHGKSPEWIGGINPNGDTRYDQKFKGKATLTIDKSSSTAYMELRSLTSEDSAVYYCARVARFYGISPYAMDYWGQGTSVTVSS VL: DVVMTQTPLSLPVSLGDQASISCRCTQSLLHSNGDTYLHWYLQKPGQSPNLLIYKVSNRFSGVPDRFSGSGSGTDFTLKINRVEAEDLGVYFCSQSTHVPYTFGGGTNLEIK
measure: binding result
reported_measurement: binds

binder: anti-CCR8 mAb 1-10 (antibody, V domains shown, Murine hybridoma mAb) VH: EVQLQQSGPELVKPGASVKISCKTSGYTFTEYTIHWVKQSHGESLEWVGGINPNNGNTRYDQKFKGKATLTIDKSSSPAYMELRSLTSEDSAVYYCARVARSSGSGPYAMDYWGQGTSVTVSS VL: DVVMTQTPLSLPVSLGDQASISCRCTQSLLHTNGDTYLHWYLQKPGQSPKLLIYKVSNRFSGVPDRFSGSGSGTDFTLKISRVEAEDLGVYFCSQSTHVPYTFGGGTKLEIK
measure: binding result
reported_measurement: binds

binder: anti-CCR8 mAb 1-14 (antibody, V domains shown, Murine hybridoma mAb) VH: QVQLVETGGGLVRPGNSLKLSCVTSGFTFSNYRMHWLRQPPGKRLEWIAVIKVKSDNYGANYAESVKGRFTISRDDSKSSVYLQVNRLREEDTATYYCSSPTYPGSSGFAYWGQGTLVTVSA VL: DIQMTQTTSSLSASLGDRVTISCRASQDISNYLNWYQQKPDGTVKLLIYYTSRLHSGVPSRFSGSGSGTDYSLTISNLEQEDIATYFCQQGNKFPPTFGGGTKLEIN
measure: binding result
reported_measurement: binds

binder: anti-CCR8 mAb 1-11 (antibody, V domains shown, Murine hybridoma mAb) VH: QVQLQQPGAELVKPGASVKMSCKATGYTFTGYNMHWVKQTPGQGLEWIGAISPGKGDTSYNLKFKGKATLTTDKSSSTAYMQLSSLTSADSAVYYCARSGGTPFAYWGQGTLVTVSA VL: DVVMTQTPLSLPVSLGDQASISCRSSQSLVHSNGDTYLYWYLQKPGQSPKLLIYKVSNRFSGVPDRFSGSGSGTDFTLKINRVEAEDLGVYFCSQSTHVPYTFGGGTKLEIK
measure: binding result
reported_measurement: binds

For the next question, use this binder.
Reported binding result for anti-CCR8 mAb 1-19 (antibody, human IgG1, kappa, V domains shown, Humanized mAb, human IgG1 / kappa) VH: EVQLVESGGGLVQPGRSLRLSCTASGFTFNTYAMNWVRQAPGKGLEWVARIRSKSNNYATYYAASVKGRFTISRDDSKSIAYLQMNSLKTEDTAVYYCVRGREAYYRYDGGYYAMDVWGQGTTVTVSS VL: DIVMTQAAPSLPVTPGESASISCRSSKSLLHSNGNTYLYWFLQKPGQSPQLLIYRMSNLASGVPDRFSGSGSGTAFTLKISRVEAEDVGVYYCMQHLEYPFTFGSGTKLEIKR : what is it?
binds
